experiment: ATG_GLI_CIS: Attagene CIS-FACTORIAL HepG2 Assay for human Zinc Finger Protein GLI1 (AID 2282945); conditions: HepG2, Attagene cis-factorial reporter mRNA, GLI element; actives raise or lower the signal
The source made the active and inactive calls. The calls were made as follows: active = hit-call score of the fitted dose curve at least 0.9, where 1 is the maximum; inactive = score below 0.9.
Labels: Yes = active, No = inactive

molecule=CNC(=O)Oc1ccc(N(C)C)c(C)c1 class_name=No
molecule=COC(N)=O class_name=No
molecule=CCCCc1ccc(O)cc1 class_name=No
molecule=O=C(O)C(F)(F)C(F)(F)C(=O)O class_name=No
molecule=O=C(O)C(F)(F)OC(F)(F)C(F)(F)OC(F)(F)F class_name=No
molecule=COP(=O)(CCC(=O)NCO)OC class_name=No
molecule=CCOP(=S)(OCC)SCSCC class_name=No
molecule="CCOP(=S)(NC(C)C)Oc1ccccc1C(=O)OC(C)C (stereo not drawn)" class_name=No
molecule=O=[N+]([O-])c1cc(Cl)ccc1Cl class_name=No
molecule="CCCCC(CC)COP(=O)(Oc1ccccc1)Oc1ccccc1 (stereo not drawn)" class_name=Yes
molecule=CCCCN(CC)C(=O)SCCC class_name=No
molecule=N#Cc1c(-c2ccc(Cl)cc2)[nH]c(C(F)(F)F)c1Br class_name=No
molecule=O=[N+]([O-])c1ccc(Cl)c(Cl)c1 class_name=No
molecule=CC(C)(C)c1ccc(O)cc1 class_name=No
molecule=CCCN(CCC)c1c([N+](=O)[O-])cc(C(C)C)cc1[N+](=O)[O-] class_name=No
molecule=O=S(=O)(c1ccc(O)cc1)c1ccc(O)cc1 class_name=No
molecule=ClC(Cl)c1ccccc1 class_name=No
molecule=CCCCN(CCCC)N=O class_name=No
molecule=Cc1ccc2c(c1N)C(=O)c1ccccc1C2=O class_name=No
molecule=COCCOCCO class_name=No
molecule="O=C(O)C(F)(OC(F)(F)C(F)(F)C(F)(F)F)C(F)(F)F (stereo not drawn)" class_name=No
molecule=CC(C)Nc1ccc(Nc2ccccc2)cc1 class_name=No
molecule=c1nc[nH]n1 class_name=No
